system: human NKp30 (human) (UniProt O14931)
Sequence (O14931 19-135 limits assumed): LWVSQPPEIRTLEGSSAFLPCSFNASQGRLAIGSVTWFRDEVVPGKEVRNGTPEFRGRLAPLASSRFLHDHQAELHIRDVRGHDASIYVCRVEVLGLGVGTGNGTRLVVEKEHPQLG
assay-overview: BLI, immunoligand on anti-hFc tip
measure: koff (s⁻¹)
// note: answer is a bare numeric in s⁻¹

Below, each entry is followed by its recorded koff result.
binder: ΔB7-H6_S3#9-SEED-PGLALA (bispecific antibody, part only; not given: SEED Fc chains and hu225 EGFR Fab, part only) chain, part: DLKVEMMAGGTQITPLNDNVTIFCNIFYSQPLNITHMGITWFWKSLTFDKEVKVFEFFGDHQEAFRPGAIVSPWRLKSGDASLRLPGIQLEEAGEYRCEVVVTPYKAQGTVQLEVVASPAS
result-unit: s⁻¹
koff: 0.056
//
binder: ΔB7-H6_S3#20-SEED-PGLALA (bispecific antibody, part only; not given: SEED Fc chains and hu225 Fab, part only) chain, part: DLKVEMMAGGTQITPLNDNVTIFCNIFYSQPLNITHMGITWFWKSLTFDKEVKVFEFWGDHQEAFRPGAIVSPWRLKSGDASLRLPGIQLEEAGEYRCEVFVTPLKAQGTVQLEVVASPAS
result-unit: s⁻¹
koff: 0.0642
//
binder: ΔB7-H6_S2#5-SEED-PGLALA (bispecific antibody, part only; not given: SEED Fc chains and hu225 Fab, part only) chain, part: DLKVEMMAGGTQITPLNDNVTIFCNIFYSQPLNITSMGITWLWKSLTFDKEVKVFEFWGDHQEAFRPGAIVSPWRLKSGDASLRLPGIQLEEAGEYRCEVFVTPYKAQGTVQLEVVASPAS
result-unit: s⁻¹
koff: 0.148

Then there is this binder:
Q: Please give the measured koff for this binder: ΔB7-H6_S2#6-SEED-PGLALA (bispecific antibody, part only; not given: SEED Fc chains and hu225 EGFR Fab, part only) chain, part: DLKVEMMAGGTQITPLNDNVTIFCNIFYFQPLNITEMGITWFWKSLTFDKEVKVFEFFGDHQEAFRPGAIVSPWRLKSGDASLRLPGIQLEEAGEYRCEVIVTPLKAQGTVQLEVVASPAS
A: 0.376
